Target: T1, hD54-ins2 bait (GAL4 DNA-binding domain fusion, pAS2-1hD54-ins2) (human, UniProt P04386 1-147 (Saccharomyces cerevisiae entry))
T1 construct: Fusion expressed in yeast
Assay: yeast two-hybrid, Y190 co-transfectants, HIS3/lacZ reporters; interactor (GAL4-AD fusion) against bait (GAL4-DB fusion)
metricName: binding result

1. hD54-ins2 interactor (GAL4 activation domain fusion, pACT2hD54-ins2) (other, range 768-881) ANFNQSGNIADSSLSFTFTNSSNGPNLITTQTNSQALSQPIASSNVHDNFMNNEITASKIDDGNNSKPLSPGWTDQTAYNAFGITTGMFNTTTMDDVYNYLFDDEDTPPNPKKEMDSAGQDINLNSPNKGLLSDSMTDVPVDTGVAARTPAVEGLTEAEEEELRAELTKVEEEIVTLRQVLAAKEKHCGELKRRLGLSTLGELKQNLSRSWHDVQVSSAYKKTQETLSQAGQKTSAALSTVGSAISRKLGDMRNSATFKSFEDRVGTIKSKVVGDRENGSDNLPSSAGSGDKPLSDPAPF: binds
2. hD54+ins2 interactor (GAL4 activation domain fusion, pACT2hD54+ins2) (other, range 768-881) ANFNQSGNIADSSLSFTFTNSSNGPNLITTQTNSQALSQPIASSNVHDNFMNNEITASKIDDGNNSKPLSPGWTDQTAYNAFGITTGMFNTTTMDDVYNYLFDDEDTPPNPKKEMDSAGQDINLNSPNKGLLSDSMTDVPVDTGVAARTPAVEGLTEAEEEELRAELTKVEEEIVTLRQVLAAKEKHCGELKRRLGLSTLGELKQNLSRSWHDVQVSSAYVKTSEKLGEWNEKVTQSDLYKKTQETLSQAGQKTSAALSTVGSAISRKLGDMRNSATFKSFEDRVGTIKSKVVGDRENGSDNLPSSAGSGDKPLSDPAPF: binds
3. hD53 interactor (GAL4 activation domain fusion, pACT2hD53) (other, range 768-881) ANFNQSGNIADSSLSFTFTNSSNGPNLITTQTNSQALSQPIASSNVHDNFMNNEITASKIDDGNNSKPLSPGWTDQTAYNAFGITTGMFNTTTMDDVYNYLFDDEDTPPNPKKEMEAQAQGLLETEPLQGTDEDAVASADFSSMLSEEEKEELKAELVQLEDEITTLRQVLSAKERHLVEIKQKLGMNLMNELKQNFSKSWHDMQTTTAYKKTHETLSHAGQKATAAFSNVGTAISKKFGDMSYSIRHSISMPAMRNSPTFKSFEERVETTVTSLKTKVGGTNPNGGSFEEVLSSTAHASAQSLAGGSRRTKEEELQC: binds
